Reference source: the nanobody polyreactivity screen of Harvey et al. (2022)

- procedure-summary: yeast display, Sf9 membrane polyspecificity reagent, FACS + sequencing; frameworks hold sequencing errors
measurement-kind: polyreactivity (PSR sort gate)

| biosequence | test-result |
| --- | --- |
| QVQLVESGGGLVQAGGSLRLSFAASGRTFNTYTMGWYRQAPGKERELVAAITGTGGSTFYADSVKGRFTISRDNAKNTVYLQMNSLKPEDTAVYYCNADLEVTIGVYTDGFDSDYWGQGTQVTVSS | low polyreactivity |
| QVQLVESGGGLVQAGGSLRLSCAASGGTFDTYDMGWYRQAPGKERELVAAIRFGDGTTYYADSVKGRFTISRDNAKNTVYLQMNSLKPEDTAVYYCNTDDPGNYWYAEYDYWGQGTQVTVSS | low polyreactivity |
| QDQLVESGGGLVQAGGSLRLSCAASGGIFPDNAMGWSRKAPGKERELVATISWSGGSTYADSVKWRFTISRDNAKNTVYLQMNRLKPEDTAVYYCAAGSAYLWGQGTQVSVSS | low polyreactivity |
| QVQLVESGGGLVQAGGSLRLSCAASGIIFTVYDMGWYRQPPGKERELVAAITWSGGSTYYADSVKGRFTISRDNAKNTVYLQMNSLKPEDTAVYYCIKVGRVWDVETDGDYDYWGQGTQVTVSS | low polyreactivity |

====

- procedure-summary: yeast display, Sf9 membrane polyspecificity reagent, FACS + sequencing; frameworks hold sequencing errors
measurement-kind: polyreactivity (PSR sort gate)

| biosequence | measurement-kind | test-result |
| --- | --- | --- |
| QVQLVESGGGLVQAGGSLRLSCAASGSTFNKYAMGWYRQAPGKERELVAAIRSNGVRTYYADSVKGRFTISRDNAKNTVYLQMNSLKPEDTAVYYCNKRYTYRYDYWGQGTQVTVSS | polyreactivity (PSR sort gate) | high polyreactivity |
| QVQLVESGGGLVQAGGSLRLSCAASGIIWYYAMGWYRQAPGKERELVAAISWSSGSTYYADSVKGRFTISRDNAKNTVYLQMNSLKPEDSAVYYCAADVYLVKYDYWGQGTQVTVSS | polyreactivity (PSR sort gate) | high polyreactivity |

====

- procedure-summary: yeast display, Sf9 membrane polyspecificity reagent, FACS + sequencing; frameworks hold sequencing errors
measurement-kind: polyreactivity (PSR sort gate)

Guide cases for polyreactivity (PSR sort gate), answers given:
| biosequence | polyreactivity (PSR sort gate) |
| --- | --- |
| QVQLVESGGGLVQAGGSLRLSCAASGRIFSYNAMGWYRQAPGKERELVAAITGGGSTNYADSVKGRFTISRDNAKNTVYLQMNSLKAEDTAVYYCAARSWSYKYWGQGTQVTVSS | high polyreactivity |
| QVQLVESGGGLVQAGGSLRLSCAASGRIFGPYTMGWYRQAPGKERELVARISRRGGSTYYADSVKGRFTISRDNAKNTVYLQMNSLKPEDTAVYYCARSQAVYDGWFAKFGYWGQGTQVTVSS | low polyreactivity |
| QVQLVESGGGLFQAGGSLRLSCAASGRTFSRYVMGWYRQAPGKERELVAAISRTGGRKYYADSVKGRFTITRDNAKNTVYLQMNSLKPEDTAVYYCNAGTVLISTYDYWGQGTQVTVSS | high polyreactivity |
| QVQLVESGGGLVQAGGSLRLSCGATGTTFYYYAMGWYRQAPGKERELVPGINTSGGNTYYADSVKGRFTISRDNAKNTVYLQMNSLKPEDTAVYYCAVEGGSLHYAWYLWGYRSGGEYWGQGTQVTVSS | high polyreactivity |
| QVQLVESGGGLVQAGGSLRLSCAASGRIFGYNAMGWYRQAPGKERELVAAINSDGSKNYADSVKGRFTISRDNAKNTVYLQMNSLKPEDTAVYYCNKELYPVGDYEYWGQGTQVTVSS | low polyreactivity |
| QVQLVESGGGLVQAGGTLRLSCAASGRTFRNNAMGWYRQAPGKEWELVAAISLRGGSTYYADSVKGRFTISRDNAKNTVYLLMNSLKPEDTAVYYCATRSRGWIAPPWQGSDGYYYWGQGTQVTVSS | low polyreactivity |
| QVQLVESGRGLVQAGGSLRLSCAASGSIFRGNAMGWYRQAPGKERELVAAMTKRGGSTYYADSGKGRFTISRDNAKNTDKFQMNSLKPEDTAVYYFAAKPSYRYYKSYDYWGQGTQVTVSS | high polyreactivity |
| QVQLVESGGGLVQAGGSLRLSCAASGSTFVGNAMGWYRQAPGKERELVAAITGGGGSTNYADSVKGRFTISRDNAKNTVYLQMNSLKPEDTAVYYCAVEVYYTGFYYSPYAYDYWGQGTQVTVSS | low polyreactivity |

In the following, a different sequence is considered.
Task item: Any idea what its polyreactivity (PSR sort gate) is? The sequence is "QVQLVESGGGLVQAGGSLRLSCAASGIIFAQYAMGWYRQAPGKERELVAAISWSGGSTYYADSVKGRFTISRDNAKNTVYLQMNSLKPEDTAVYYCAADGYYGYYSQYEYLYYYWGQGTQVTVSS"
Reply: high polyreactivity
